# target: IRAK4 (Homo sapiens, UniProt Q9NWZ3)
# Sequence (Q9NWZ3 1-460): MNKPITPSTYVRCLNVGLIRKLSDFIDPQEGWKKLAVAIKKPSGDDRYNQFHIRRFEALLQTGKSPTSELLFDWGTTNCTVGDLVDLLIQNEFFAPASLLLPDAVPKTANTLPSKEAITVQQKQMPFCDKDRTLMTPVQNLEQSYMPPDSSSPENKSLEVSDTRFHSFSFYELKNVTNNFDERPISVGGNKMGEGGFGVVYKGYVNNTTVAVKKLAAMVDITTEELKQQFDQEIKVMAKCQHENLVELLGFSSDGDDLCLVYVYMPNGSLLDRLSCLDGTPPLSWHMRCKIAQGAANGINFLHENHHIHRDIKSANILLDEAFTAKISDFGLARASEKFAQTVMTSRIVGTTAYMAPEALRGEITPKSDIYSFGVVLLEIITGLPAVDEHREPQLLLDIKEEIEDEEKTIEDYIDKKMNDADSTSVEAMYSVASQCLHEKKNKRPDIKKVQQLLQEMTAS
# protocol-description: RBC HotSpot Kinase Assay, IRAK4
# Assay type: biochemical
# Set-up: purchased Reaction Biology (RBC), HotSpot kinase assay
# protocol-conditions: isolated kinase, 33P-ATP
readout-kind: IC50 (nM)
Field: numeric (nM). Do not append units.

Dear colleague, I am looking for the recorded IC50 of the following molecule: O=S1(=O)CCCN1c1cn2c(-c3nc(N[C@H]4CNC[C@@H]4F)c(F)cc3F)cnc2cn1 [Compound 105]
1

Which IC50 value belongs to CC(C)(C)c1cn2c(-c3cc(F)cc(N[C@H]4CNC[C@@H]4F)n3)cnc2cn1 [Compound 122] ?
31

Look up IC50 for this molecule: O=C1NCCN1c1cn2c(-c3cccc(N[C@H]4CNCC[C@@H]4F)n3)cnc2cn1 [Compound 118]
4

Would you mind telling me what IC50 value was observed for O=S1(=O)CCCN1c1cn2c(-c3nc(N[C@H]4CNCC[C@@H]4F)c(F)cc3F)cnc2cn1 [Compound 106] ?
3

I am curious: what IC50 value has been reported for O=C1COCCN1c1cn2c(-c3cccc(N[C@H]4CNC[C@@H]4F)n3)cnc2cn1 [Compound 110] ?
98

Can you share its IC50? I mean this molecule: C[C@H]1C[C@@H](Nc2cccc(-c3cnc4cnc(C5(C)CC5)cn34)n2)CCN1 [Compound 7]
1020
